target: T1, human GFRα3 expressed with a C-terminal myc-myc-hexahistidine tag (human, UniProt O60609 32-374, biotinylated (sites not given) in ELISA format 2 and in the Octet cross-competition; not in SPR); experiment: SPR, Ab captured, 37C
T1 construct: also called hGFRα3-mmh; hGFRα3-mmH
T1 sequence (O60609 other isoform, or with tags, fused parts or gaps limits assumed): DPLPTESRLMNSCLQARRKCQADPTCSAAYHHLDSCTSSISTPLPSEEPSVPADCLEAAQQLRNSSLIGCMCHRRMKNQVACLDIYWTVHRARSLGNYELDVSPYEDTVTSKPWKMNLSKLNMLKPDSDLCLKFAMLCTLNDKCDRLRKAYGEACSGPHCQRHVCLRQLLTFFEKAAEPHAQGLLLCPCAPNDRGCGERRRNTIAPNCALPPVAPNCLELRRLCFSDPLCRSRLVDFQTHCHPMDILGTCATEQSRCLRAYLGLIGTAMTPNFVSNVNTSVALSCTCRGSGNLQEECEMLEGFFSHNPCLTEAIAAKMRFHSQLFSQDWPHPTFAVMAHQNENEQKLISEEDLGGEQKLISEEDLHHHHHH
Quantity Name: koff (s⁻¹)
Field format: number, assumed s⁻¹, no unit text.

Which koff value belongs to H4H2292S (antibody, human IgG4, V domains shown, human IgG4 Fc (H4H)) VH: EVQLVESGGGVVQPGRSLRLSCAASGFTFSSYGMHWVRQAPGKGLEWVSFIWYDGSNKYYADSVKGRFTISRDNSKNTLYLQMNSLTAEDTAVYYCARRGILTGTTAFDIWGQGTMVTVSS VL: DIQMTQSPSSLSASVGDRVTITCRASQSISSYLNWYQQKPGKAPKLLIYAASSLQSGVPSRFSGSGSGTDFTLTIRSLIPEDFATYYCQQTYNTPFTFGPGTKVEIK ?
0.000249

Which koff value belongs to H4H2291S (antibody, human IgG4, V domains shown, human IgG4 Fc (H4H)) VH: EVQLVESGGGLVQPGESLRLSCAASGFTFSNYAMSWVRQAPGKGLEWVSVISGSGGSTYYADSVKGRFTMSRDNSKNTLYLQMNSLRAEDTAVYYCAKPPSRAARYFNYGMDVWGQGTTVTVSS VL: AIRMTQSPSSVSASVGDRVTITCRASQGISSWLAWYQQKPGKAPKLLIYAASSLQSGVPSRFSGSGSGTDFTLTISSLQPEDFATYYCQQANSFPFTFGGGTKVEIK ?
0.000323

Which koff value belongs to H4H2345S (antibody, human IgG4, V domains shown, human IgG4 Fc (H4H)) VH: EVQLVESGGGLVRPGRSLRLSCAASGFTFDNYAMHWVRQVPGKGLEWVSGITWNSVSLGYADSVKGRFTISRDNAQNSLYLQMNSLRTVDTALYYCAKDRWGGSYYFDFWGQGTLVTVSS VL: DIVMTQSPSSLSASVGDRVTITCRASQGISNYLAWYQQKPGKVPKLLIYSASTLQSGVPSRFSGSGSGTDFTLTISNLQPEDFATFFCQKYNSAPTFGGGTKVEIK ?
0.0087
